Assay: Stability in rat plasma assessed as compound remaining measured after 120 mins by UPLC analysis
Format: ADME, cell-free
Conditions: read-out: Stability
valueKind: remaining at 2 h

Reported remaining at 2 h, compound O=C(NCc1cn(-c2ccccc2)nn1)c1cc(Cc2n[nH]c(=O)c3ccccc23)ccc1F : ____
≤ 60%

====

Target: Solute carrier family 2, facilitated glucose transporter member 4 (Rattus norvegicus) (UniProt P19357)
Sequence (P19357 whole entry): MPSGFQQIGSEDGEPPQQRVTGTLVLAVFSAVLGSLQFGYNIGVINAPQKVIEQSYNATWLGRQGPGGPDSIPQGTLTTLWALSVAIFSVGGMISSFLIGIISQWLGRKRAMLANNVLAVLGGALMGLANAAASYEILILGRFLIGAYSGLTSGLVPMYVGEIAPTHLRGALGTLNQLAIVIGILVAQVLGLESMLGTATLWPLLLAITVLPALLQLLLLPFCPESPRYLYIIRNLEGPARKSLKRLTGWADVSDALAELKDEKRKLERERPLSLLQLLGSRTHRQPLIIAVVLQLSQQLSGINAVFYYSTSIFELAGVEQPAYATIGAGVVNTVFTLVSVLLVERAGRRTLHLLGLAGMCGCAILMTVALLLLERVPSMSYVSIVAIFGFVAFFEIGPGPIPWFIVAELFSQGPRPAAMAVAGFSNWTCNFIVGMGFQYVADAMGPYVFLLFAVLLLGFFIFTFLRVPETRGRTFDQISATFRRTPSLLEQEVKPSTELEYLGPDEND
Experiment: Modulation of GLUT4 translocation in rat L6-GLUT4myc skeletal muscle cells assessed as increase in surface GLUT4myc level by measuring fold stimulation at 10 uM measured after 16 hrs by O-phenylenediamine assay relative to control
Type: cell-based
Details: filed as modulator
valueKind: fold change (FC)
Kindly provide the number alone.

>  <structureString>
O=C(NCc1cn(-c2ccccc2)nn1)c1cc(Cc2n[nH]c(=O)c3ccccc23)ccc1F

>  <valueKind>
fold change (FC)

>  <testResult>
1.93

$$$$
>  <structureString>
O=C(OCc1cn(-c2ccc(F)cc2)nn1)c1ccc(Cc2n[nH]c(=O)c3ccccc23)cc1

>  <valueKind>
fold change (FC)

>  <testResult>
0.99

$$$$
>  <structureString>
Cc1ccc(-n2cc(CNC(=O)c3cc(Cc4n[nH]c(=O)c5ccccc45)ccc3F)nn2)cc1

>  <valueKind>
fold change (FC)

>  <testResult>
1.92

$$$$
>  <structureString>
O=C(NCc1cn(-c2ccccc2)nn1)c1ccc(Cc2n[nH]c(=O)c3ccccc23)cc1

>  <valueKind>
fold change (FC)

>  <testResult>
1.48

$$$$
>  <structureString>
C#CCNC(=O)c1ccc(Cc2n[nH]c(=O)c3ccccc23)cc1

>  <valueKind>
fold change (FC)

>  <testResult>
1.17

$$$$
>  <structureString>
O=C(NCc1cn(-c2ccc(F)cc2F)nn1)c1cc(Cc2n[nH]c(=O)c3ccccc23)ccc1F

>  <valueKind>
fold change (FC)

>  <testResult>
1.75

$$$$
>  <structureString>
COc1ccc(-n2cc(CNC(=O)c3cc(Cc4n[nH]c(=O)c5ccccc45)ccc3F)nn2)cc1

>  <valueKind>
fold change (FC)

>  <testResult>
1.92

$$$$
>  <structureString>
O=C(NCc1cn(-c2cccc3ccccc23)nn1)c1cc(Cc2n[nH]c(=O)c3ccccc23)ccc1F

>  <valueKind>
fold change (FC)

>  <testResult>
1.15

$$$$
>  <structureString>
COc1cc(-n2cc(CNC(=O)c3cc(Cc4n[nH]c(=O)c5ccccc45)ccc3F)nn2)cc(OC)c1OC

>  <valueKind>
fold change (FC)

>  <testResult>
1.08

$$$$
>  <structureString>
O=C(NCc1cn(-c2ccc(Cl)cc2)nn1)c1cc(Cc2n[nH]c(=O)c3ccccc23)ccc1F

>  <valueKind>
fold change (FC)

>  <testResult>
1.53

$$$$

Reported fold change (FC), compound O=C(NCc1cn(-c2cccc(F)c2)nn1)c1cc(Cc2n[nH]c(=O)c3ccccc23)ccc1F : ____
0.84

Similarly, COc1cccc(OC)c1-n1cc(CNC(=O)c2cc(Cc3n[nH]c(=O)c4ccccc34)ccc2F)nn1 ?
1.31

Similarly, Cc1ccc(-n2cc(CNC(=O)c3ccc(Cc4n[nH]c(=O)c5ccccc45)cc3)nn2)cc1 ?
0.77

Similarly, CC(C)c1ccc(-n2cc(COC(=O)c3cc(Cc4n[nH]c(=O)c5ccccc45)ccc3F)nn2)cc1 ?
1.52

Similarly, O=C(NCc1cn(-c2ccc(Br)cc2)nn1)c1cc(Cc2n[nH]c(=O)c3ccccc23)ccc1F ?
1.87
